Hey, just so you know, these numbers are from PubChem BioAssay (NCATS).

- assay.summary: qHTS assay for small molecule agonists of the antioxidant response element (ARE) signaling pathway (AID 651741); for activation: % of control where 0% means no effect
- experimental.parameters: HepG2 ARE-bla reporter, beta-lactamase FRET ratio, 16 h; series mostly up to 96 µM
Records with an inconclusive call do not appear. Active and inactive are the calls of the source. Calls come from the whole dose curve; as a rule, active = well fitted activation curve with a large enough effect in the signal ratio; inconclusive = small, poorly fitted or top-dose-only effect, or effect the other way, or a change in a side signal; inactive = flat fitted curve, though single readings scatter; the % refers to the signal ratio.
// classify into 1.0 = active, 0.0 = inactive

- CCCCC/C=C\C/C=C\CCCCCCCC(=O)O: 0.0
- IC(I)I: 1.0
- O=S(=O)(O)O: 0.0
- CCCCCCCC/C=C\CCCCCCCC(=O)O: 0.0
- Cc1ccccc1: 0.0

Could you now consider this next compound?
Query :: Which outcome was entered for the compound CC(O)CO (stereo unspecified) in this test?
Result :: 0.0

====

- System: Zika virus NS2B-NS3 protease (unlinked complex)
- assay.summary: Primary screen GU Rhodamine qHTS for Zika virus inhibitors: Unlinked NS2B-NS3 protease assay (AID 1347159); note: nearly all actives have a fitted effect of over 60% in size
- experimental.parameters: Recombinant ZIKV NS2B-NS3 protease, Rhodamine110 substrate fluorescence; series mostly up to 107 µM
Records with an inconclusive call do not appear. Active and inactive are the calls of the source. Calls come from the whole dose curve; as a rule, active = well fitted inhibition curve with a large enough effect; inconclusive = small, poorly fitted or top-dose-only effect; inactive = no such curve, though single readings can be large or run the other way. Where a SMILES comes first, the peptide text is derived from it. [ ]: non-standard residue; d: D form. PhLac = O=C(O)[CH](O)Cc1ccccc1; NMeV = CN[CH](C(=O)O)C(C)C
// classify into active, inactive

Reference set, count: 10
- O=C(/C=C/c1ccccc1)OCC1=CC[C@@H]2C(C(=O)O)=CO[C@@H](O[C@@H]3O[C@H](CO)[C@@H](O)[C@H](O)[C@H]3O)[C@H]12: inactive
- Cc1nnc(C(C)C)n1C1CC2CCC(C1)N2CC[C@H](NC(=O)C1CCC(F)(F)CC1)c1ccccc1 (stereo partly specified): inactive
- CC[C@H]1OC(=O)[C@H](C)[C@@H](O[C@H]2C[C@@](C)(OC)[C@@H](O)[C@H](C)O2)[C@H](C)[C@@H](O[C@@H]2O[C@H](C)C[C@H](N(C)C)[C@H]2O)[C@@](C)(O)C[C@@H](C)[C@@H]2N[C@@H](COCCOC)OC([C@H]2C)[C@]1(C)O: inactive
- COCCCNCC1COc2ccccc2O1 (stereo unspecified): inactive
- C=C1C(O[C@@H]2O[C@H](CO)[C@@H](O)[C@H](O)[C@@H]2O)CC2C(C)(C)C(O)CCC2(C)C1CC/C(C)=C\CO (stereo partly specified): inactive
- CC(C)(O)C1=CCC23COC(C2)C(O)(C(=O)O)CCC13 (stereo unspecified): inactive
- C[C@H]1CN(C[C@H](Cc2ccccc2)C(=O)NCC(=O)O)CC[C@@]1(C)c1cccc(O)c1: inactive
- CC(=O)O[C@H]1[C@H](C)[C@@H](O)[C@H]2[C@@H]1C=C(C(=O)O)[C@H]1C[C@@H]3[C@H]([C@H]21)[C@H]1C(=O)O[C@@H]2CC[C@@]3(C)O[C@]1(O)[C@@H]2C: inactive
- CC(C)C(C(=O)N1CCCC1C(=O)O)N(C)C(=O)C(O)Cc1ccccc1 (stereo unspecified) (H-[PhLac]-[NMeV]-Pro-OH; configuration not given here): inactive
- O=C(/C=C/c1ccc(O)cc1)OC[C@]12O[C@H]1[C@@H](O)[C@@H]1C=CO[C@@H](O[C@@H]3O[C@H](CO)[C@@H](O)[C@H](O)[C@H]3O)[C@@H]12: inactive

Query :: Which outcome was entered for the molecule C[C@@H]1CC[C@]2(C)C3(C)CC[C@@]2(OC3=O)[C@@]12C[C@H](c1ccoc1)OC2=O in this test?
Result :: inactive

Query :: Which outcome was entered for the molecule COC1=CC(=O)O[C@@H](/C=C/c2ccccc2)[C@@H]1O in this test?
Result :: inactive

Query :: Which outcome was entered for the molecule CO[C@@]12CC3[C@@H]([C@@H](O)[C@@H](OC(C)=O)C4[C@](C)(COC(C)=O)CCC[C@]34C)[C@@H](C)C1=CC(=O)O2 (stereo partly specified) in this test?
Result :: inactive

Query :: Which outcome was entered for the molecule CC(C)(O)c1ccc2c(c1)C(=O)CC1[C@](C)(CO)CCC[C@]21C (stereo partly specified) in this test?
Result :: active

Query :: Which outcome was entered for the molecule CNC(=O)c1ccc(Nc2ncc(C(F)(F)F)c(NCc3nccnc3N(C)S(C)(=O)=O)n2)cc1 in this test?
Result :: inactive

Query :: Which outcome was entered for the molecule C=C1CC[C@H]2[C@@H](/C=C(\C)C(=O)[C@@]3(OC(C)=O)C[C@H](C)[C@H](OC(C)=O)[C@@H]3[C@H]1OC(C)=O)C2(C)C in this test?
Result :: active

====

- Test system: Nanoluciferase (engineered Oplophorus gracilirostris luciferase)
- assay.summary: Primary Nanoluciferase (NLuc) qHTS assay for identification of artifact compounds. (AID 1845222);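 note: NLuc secreted into diluted conditioned medium of S16 cells; 0% = DMSO and -100% = no enzyme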
- experimental.parameters: NLuc-conditioned medium, Nano-Glo luminescence, 5 min; series mostly up to 54.1 µM
Active and inactive are the calls of the source. The call rests on the fitted dose curve; in most records, active means well fitted inhibition curve with a large enough effect; inconclusive means small, poorly fitted or top-dose-only effect; inactive means flat fitted curve, though single readings scatter.
readout: activity, negative = inhibition

Look over these answered cases.
• O=C(OCc1cccc(O)c1O[C@@H]1O[C@H](CO)[C@@H](O)[C@H](O)[C@H]1O)C1(O)C(=O)C2C=CC1C1C=CC(=O)C(O)(C(=O)OCc3cccc(O)c3O[C@@H]3O[C@H](CO)[C@@H](O)[C@H](O)[C@H]3O)C21 (stereo partly specified) = 1.93% [at 11.6 µM] (inactive)
• CC(=O)N1CCN(NC(=O)c2ccc(F)cc2)CC1 = inactive
• COc1cc(/C=C/C(=O)OC2CC(OC(C)=O)C(OC(C)=O)C3C2CCC2C(=O)OC(c4ccoc4)CC23C)ccc1O[C@@H]1O[C@H](CO)[C@@H](O)[C@H](O)[C@H]1O (stereo partly specified) = inactive
• CCC(C)(O)C(O)C(=O)OCc1ccc(O[C@@H]2O[C@H](CO)[C@@H](O)[C@H](O)[C@H]2O)cc1 (stereo partly specified) = inactive
• NC(Cc1c[nH]c2ccccc12)C(=O)NC(CCC(=O)O)C(=O)O (stereo unspecified) = inactive
• CC1(C)CCC[C@@]2(C)[C@H]1[C@H](O)C=C1COC(=O)[C@@]12O = inactive
• CCCC(N[C@@H](C)C(=O)N1[C@H](C(=O)O)C[C@@H]2CCCC[C@@H]21)C(=O)OCC (stereo partly specified) = inactive
• CC1=CC[C@]2(C(=O)O[C@@H]3O[C@H](CO[C@@H]4O[C@H](CO)[C@@H](O[C@@H]5O[C@@H](C)[C@H](O)[C@@H](O)[C@H]5O)[C@H](O)[C@H]4O)[C@@H](O)[C@H](O)[C@H]3O)CC[C@]3(C)C(CCC4[C@@]5(C)C[C@@H](O)[C@H](O)[C@@](C)(CO)C5CC[C@]43C)C2C1C (stereo partly specified) = 3.97% [at 11.6 µM] (inactive)

I'm hoping you can list activity, negative = inhibition for every molecule here, please.
1. C=C1C2(CCC(=O)OC2(C)C)CC(OC(=O)/C(C)=C/C)C2(C)C13OC14C(=O)OC(C)(C(=O)C12C(=O)OC4C)C3OC(C)=O (stereo unspecified)
2. C[C@@H]1O[C@@H](O[C@H]2[C@H](OC(=O)[C@]34CCC(C)(C)C[C@H]3C3=CCC5[C@@]6(C)C[C@H](O)[C@H](O[C@@H]7O[C@H](CO[C@@H]8OC[C@H](O)[C@H](O)[C@H]8O)[C@@H](O)[C@H](O)[C@H]7O)C(C)(C)C6CC[C@@]5(C)[C@]3(C)C[C@H]4O)OC[C@@H](O)[C@@H]2O)[C@H](O)[C@H](O[C@@H]2OC[C@](O)(CO)[C@H]2O)[C@H]1O[C@@H]1OC[C@H](O)[C@H](O[C@@H]2OC[C@@H](O)[C@H](O)[C@H]2O)[C@H]1O (stereo partly specified)
3. N[C@@H](CC(=O)N1CCn2c(nnc2C(F)(F)F)C1)Cc1[nH]nc2c(F)c(F)ccc12

Result ::
1: inactive; 2: 3.55% [at 11.6 µM] (inactive); 3: inactive

====

- System: Zika virus NS2B-NS3 protease (unlinked complex)
- assay.summary: Primary screen GU Rhodamine qHTS for Zika virus inhibitors: Unlinked NS2B-NS3 protease assay (AID 1347159); note: nearly all actives have a fitted effect of over 60% in size
- experimental.parameters: Recombinant ZIKV NS2B-NS3 protease, Rhodamine110 substrate fluorescence; series mostly up to 107 µM
- Excerpt: Avindra Nath, Ph.D., National Institute of Neurological Disorders and Stroke (NINDS), Bethesda, MD Radhakrishnan Padmanabhan, Ph.D., Georgetown University (GU), Washington D.C. Zika Virus causes congenital defects, including microcephaly and is associated with Guillain-Barre syndrome, eningoencephalitis and myelitis in infected adult. […]
Inconclusive results are not listed. Activity calls are given as the source filed them. Calls come from the whole dose curve; as a rule, active = well fitted inhibition curve with a large enough effect; inconclusive = small, poorly fitted or top-dose-only effect; inactive = no such curve, though single readings can be large or run the other way.
// classify into active, inactive

* COc1cc(-c2cccc(O)c2)cc2c1OCO2 | active
* CCCn1cnc2c(NCc3ccccc3)nc(N[C@H](CC)CO)nc21 | inactive
* CC(C)CNC(=O)/C=C/CCCCc1ccc2c(c1)OCO2 | inactive

Query :: Which outcome was entered for the compound C=C1CC2C3(C)C(OC(C)=O)CC(=O)OC(C)(C)C3C(O)C(OC(C)=O)C2(C)C2C(=O)OC(C)C(=O)C12C (configuration not stated) in this test?
Result :: inactive

Query :: Which outcome was entered for the compound CC1(C)O[C@]23C[C@H]1C[C@H](OC(=O)c1ccoc1)[C@]2(C)[C@@H](OC(=O)c1ccoc1)CCC3(C)O (some centres not stated) in this test?
Result :: inactive

Query :: Which outcome was entered for the compound COC(=O)[C@H](OC(C)=O)[C@H]1C(C)(C)C(=O)[C@H]2CC3=C4CC(=O)O[C@@H](c5ccoc5)[C@]4(C)CCC3[C@@]1(C)C2=O (some centres not stated) in this test?
Result :: inactive

Query :: Which outcome was entered for the compound NS(=O)(=O)OC[C@@H]1C[C@@H](n2ccc3c(N[C@H]4CCc5ccccc54)ncnc32)C[C@@H]1O in this test?
Result :: inactive

Query :: Which outcome was entered for the compound CCCCCCc1cccc(NC(=O)[C@H](N)CCP(=O)(O)O)c1 in this test?
Result :: inactive

Query :: Which outcome was entered for the compound C=C1CCC2(OC1)OC1CC3C4CC=C5CC(O)CC(O[C@@H]6OC[C@@H](O)[C@H](O)[C@H]6O)C5(C)C4CCC3(C)C1(O)C2C (some centres not stated) in this test?
Result :: inactive

Query :: Which outcome was entered for the compound CCC(=O)O[C@]1(C(=O)CCl)[C@@H](C)C[C@H]2[C@@H]3C[C@H](F)C4=CC(=O)C=C[C@]4(C)[C@@]3(F)[C@@H](O)C[C@@]21C in this test?
Result :: inactive

Query :: Which outcome was entered for the compound CN(C)C/C=C/C(=O)Nc1ccc(C(=O)Nc2cccc(Nc3ncc(Cl)c(-c4c[nH]c5ccccc45)n3)c2)cc1 in this test?
Result :: inactive
